# System: Penicillium decumbens
# experiment_description: Inhibition of Penicillium decumbens naringinase at 2 mM incubated for 10 to 30 mins using substrate by spectrophotometry
Activity calls are given as the source filed them. No cut-off for these calls is given here.
value_type: inhibition

Example entries and their recorded answers appear below.
1. OC[C@H]1O[C@@H]2N=C(SCCCCCCCCCCCCCCCCI)O[C@@H]2[C@@H](O)[C@@H]1O: inactive
2. COC(=O)CCCCCCCCCCCCCCCSC1=N[C@H]2O[C@H](CO)[C@@H](O)[C@H](O)[C@H]2O1: inactive
3. OC[C@H]1O[C@@H]2N=C(SCCCCCCCCCCCCCCCCF)O[C@@H]2[C@@H](O)[C@@H]1O: inactive
4. OC[C@H]1O[C@@H]2N=C(SCCCCCCCCCCCCCCCCSC3=N[C@H]4O[C@H](CO)[C@@H](O)[C@H](O)[C@H]4O3)O[C@@H]2[C@@H](O)[C@@H]1O: inactive
5. O=C(O)CCCCCCCCCCCCCCCSC1=N[C@H]2O[C@H](CO)[C@@H](O)[C@H](O)[C@H]2O1: inactive

Next, consider the following compound.
Query: I have this compound here, `OCCCCCCCCCCCCCCCCSC1=N[C@H]2O[C@H](CO)[C@H](O)[C@H](O)[C@H]2O1` , and I need its recorded inhibition.
Response: inactive

###

# target: Lysosomal acid glucosylceramidase (Homo sapiens, UniProt P04062)
# Sequence (P04062 whole entry): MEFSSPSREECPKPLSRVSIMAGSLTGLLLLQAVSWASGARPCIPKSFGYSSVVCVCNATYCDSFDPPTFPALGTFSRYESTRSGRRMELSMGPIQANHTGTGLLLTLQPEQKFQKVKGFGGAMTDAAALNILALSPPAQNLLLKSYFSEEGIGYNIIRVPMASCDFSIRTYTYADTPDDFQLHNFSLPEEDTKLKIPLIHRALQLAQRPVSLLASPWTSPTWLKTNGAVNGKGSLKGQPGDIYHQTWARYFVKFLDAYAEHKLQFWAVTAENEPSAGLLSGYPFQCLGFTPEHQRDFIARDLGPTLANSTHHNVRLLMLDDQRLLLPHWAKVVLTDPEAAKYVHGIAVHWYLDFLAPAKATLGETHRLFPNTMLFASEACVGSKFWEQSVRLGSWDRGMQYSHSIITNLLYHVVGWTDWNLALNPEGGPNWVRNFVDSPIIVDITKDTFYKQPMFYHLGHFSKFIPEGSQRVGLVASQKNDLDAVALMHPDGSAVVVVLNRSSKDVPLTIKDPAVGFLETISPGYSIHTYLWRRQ
# experiment_description: Inhibition of human beta-glucocerebrosidase at pH 7.0 by spectrophotometry
# condition_context: read-out: IC50
As shown below, each of these compounds has a reported pIC50 value.
pIC50 field: float, defined as -log10 of concentration (mol/L).

1) COC(=O)CCCCCCCCCCCCCCCSC1=N[C@H]2O[C@H](CO)[C@@H](O)[C@H](O)[C@H]2O1: 4.48
2) O=C(O)CCCCCCCCCCCCCCCSC1=N[C@H]2O[C@H](CO)[C@@H](O)[C@H](O)[C@H]2O1: 3.38
3) OC[C@H]1O[C@@H]2N=C(SCCCCCCCCCCCCCCCCF)O[C@@H]2[C@@H](O)[C@@H]1O: 5.41

Next, consider the following compound.
Query: I have this compound here, `OC[C@H]1O[C@@H]2N=C(SCCCCCCCCCCCCCCCCI)O[C@@H]2[C@@H](O)[C@@H]1O` , and I need its recorded pIC50.
Response: 3.64

Attribution: ChEMBL document CHEMBL3393046
